Test system: Alternaria solani
assay_text: Alternaria test (tomato)/protective, combinations (Example M)
Type: in vivo
assay_setup: Alternaria solani, 72 h; 5 ppm; read-out: Efficacy in % found
measurement_name: pest or weed control at 5 ppm (%)
Record the value in %, omitting the unit from your answer.

Provide only the value of recorded pest or weed control at 5 ppm for CON=C(C(=O)OC)c1ccccc1CON=C(C)c1cccc(C(F)(F)F)c1
40

Provide only the value of recorded pest or weed control at 5 ppm for CC(C)(C)C(O)(CCc1ccc(Cl)cc1)Cn1cncn1 (centres unmarked)
29

Provide only the value of recorded pest or weed control at 5 ppm for COC(=O)N(OC)c1ccccc1COc1ccn(-c2ccc(Cl)cc2)n1
49

Provide only the value of recorded pest or weed control at 5 ppm for OC(Cc1ccccc1Cl)(Cn1nc[nH]c1=S)C1(Cl)CC1 (centres unmarked)
1

Provide only the value of recorded pest or weed control at 5 ppm for CO/N=C(/C1=NOCCO1)c1ccccc1Oc1ncnc(Oc2ccccc2Cl)c1F
35

Each recorded value in this set is attributed to patent US20110003689A1.
